For each entry below, report its Inhibition value.
- Tested on: Cryptococcus neoformans
- Condition Info: Concentration 20 uM; ASSAY_TEST Inhibition of Fungal Growth; detection method Resazurin; Absorption (OD600-OD570); plate type 384well; NBS; CORNING #3640
Potency and affinity values are given separately.

What the record says about COC(=O)C1=C(C)NC(C)=C(C(=O)OCCN(C)Cc2ccccc2)C1c1cccc([N+](=O)[O-])c1.Cl (centres undefined) [NICARDIPINE HYDROCHLORIDE] : Inhibition is -9.15%

What the record says about O=C1c2c(O)cc(O)cc2O[C@H](c2ccc(O)c(O)c2)[C@H]1O [(+)-TAXIFOLIN] : Inhibition is -3.68%

What the record says about COc1cc(/C=C/c2ccc(O)cc2)cc(OC)c1 : Inhibition is -0.34%

What the record says about CN1CCN(CCCN2c3ccccc3Sc3ccc(C(F)(F)F)cc32)CC1.Cl.Cl [TRIFLUOPERAZINE HYDROCHLORIDE] : Inhibition is -7.04%

What the record says about CCCN(CCC)S(=O)(=O)c1ccc(C(=O)O)cc1 : Inhibition is -7.72%

What the record says about CC(=O)OCC(=O)[C@@]1(O)CC[C@H]2[C@@H]3CCC4=CC(=O)CC[C@]4(C)[C@H]3[C@@H](O)C[C@@]21C [HYDROCORTISONE ACETATE] : Inhibition is -7.62%

What the record says about COc1ccccc1OCCNCC(O)COc1cccc2[nH]c3ccccc3c12 (centres undefined) : Inhibition is 1.85%

What the record says about CCCCC[C@H](O)/C=C/[C@H]1[C@H](O)CC(=O)[C@@H]1CCCCCCC(=O)O : Inhibition is 2.52%

What the record says about CNCCC=C1c2ccccc2CCc2ccccc21.Cl [NORTRIPTYLINE HYDROCHLORIDE] : Inhibition is -10.6%

What the record says about Cc1onc(-c2ccccc2)c1-c1ccc(S(N)(=O)=O)cc1 : Inhibition is 0.76%

What the record says about O=C([O-])c1cc(=O)c2c(OCC(O)COc3cccc4oc(C(=O)[O-])cc(=O)c34)cccc2o1.[Na+].[Na+] [CROMOLYN SODIUM] : Inhibition is 0.69%

What the record says about O=C1[C@H](CC[C@H](O)c2ccc(F)cc2)[C@@H](c2ccc(O)cc2)N1c1ccc(F)cc1 : Inhibition is -1.78%

What the record says about Cc1c(C(=O)NN2CCCCC2)nn(-c2ccc(Cl)cc2Cl)c1-c1ccc(I)cc1 : Inhibition is -5.99%

What the record says about Nc1ccn([C@H]2CC[C@@H](CO)O2)c(=O)n1 : Inhibition is -0.26%

What the record says about CSc1nc2cc(Cl)c(Oc3cccc(Cl)c3Cl)cc2[nH]1 : Inhibition is -2.96%

What the record says about CC(=O)O[C@]1(C(C)=O)CC[C@H]2[C@@H]3C[C@H](C)C4=CC(=O)CC[C@]4(C)[C@H]3CC[C@@]21C [MEDROXYPROGESTERONE ACETATE] : Inhibition is -5.46%

What the record says about Cc1ccc(C)c(OCCCC(C)(C)C(=O)O)c1 : Inhibition is -1.55%

What the record says about Cl.NC[C@H]1CC[C@H](C(=O)Oc2ccc(CCC(=O)O)cc2)CC1 [CETRAXATE HYDROCHLORIDE] : Inhibition is -5.7%

What the record says about CC(=O)Nc1nnc(S(N)(=O)=O)s1 [ACETAZOLAMIDE] : Inhibition is -2.97%

What the record says about COc1ccc(-c2oc3c(CC=C(C)C)c(O[C@@H]4O[C@H](CO)[C@@H](O)[C@H](O)[C@H]4O)cc(O)c3c(=O)c2O[C@@H]2O[C@@H](C)[C@H](O)[C@@H](O)[C@H]2O)cc1 : Inhibition is 0.11%

What the record says about COc1nc(C)nc(Cl)c1NC1=NCCN1.Cl [MOXONIDINE HYDROCHLORIDE] : Inhibition is 0.52%

What the record says about CN(C)CCOC(c1ccccc1)c1ccccc1.Cl [DIPHENHYDRAMINE HYDROCHLORIDE] : Inhibition is 4.12%

What the record says about CC(=O)CCCCn1cnc2c1c(=O)n(C)c(=O)n2C : Inhibition is -0.96%

What the record says about CC1CCN(CCCC(=O)c2ccc(F)cc2)CC1.Cl : Inhibition is -4.29%

What the record says about COc1cc2nc(N(C)CCCNC(=O)C3CCCO3)nc(N)c2cc1OC (centres undefined) : Inhibition is -5.01%

What the record says about Cc1cccc(Nc2ccccc2C(=O)O)c1C : Inhibition is 2.83%

What the record says about O=C1CCc2ccc(OCCCCN3CCN(c4cccc(Cl)c4Cl)CC3)cc2N1 : Inhibition is 6.93%

What the record says about CC(Oc1c(Cl)cccc1Cl)C1=NCCN1.Cl (centres undefined) [LOFEXIDINE HYDROCHLORIDE] : Inhibition is -0.75%

What the record says about O=C(O)CCNC(=O)c1ccc(N=Nc2ccc(O)c(C(=O)O)c2)cc1 : Inhibition is -5.87%

What the record says about CC1CNc2c(cccc2S(=O)(=O)N[C@@H](CCCNC(=N)N)C(=O)N2CC[C@@H](C)C[C@@H]2C(=O)O)C1 (some centres undefined) : Inhibition is -2.44%

What the record says about Cc1[nH]cnc1CN1CCc2c(c3ccccc3n2C)C1=O.Cl [ALOSETRON HYDROCHLORIDE] : Inhibition is -5.48%

What the record says about O=C1C(c2c(O)[nH]c3ccccc23)=Nc2ccccc21 : Inhibition is -4.77%

What the record says about CC(Cc1ccc(O)c(O)c1)(NN)C(=O)O.O (centres undefined) : Inhibition is -6.03%

What the record says about CC(N)(Cc1ccc(O)c(O)c1)C(=O)O (stereo not drawn) [METHYLDOPA (RACEMIC)] : Inhibition is 7.73%
